System: FYN
Conditions: concentration: 1 μM, replicates: in singlicate; n = 1;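 further: KINOMEscan kinase panel screen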
Item-by-item account of %Inh

| COMPOUND | UNITS | %Inh |
| --- | --- | --- |
| COc1ccccc1-c1ccc2c(NC(=O)C3CC3)n[nH]c2n1 [SB-711239] | % | 5 |
| O=C(Nc1n[nH]c2nc(-c3nccs3)c(Br)cc12)C1CC1 [SB-742251] | % | 3 |
| Nc1ncnc2[nH]c(-c3ccccc3)nc12 [AH5015] | % | 39 |
| Fc1cccc(COc2nnc(-c3ccc4c(c3)CCO4)o2)c1 | % | 0 |
| Cc1cc(NCC(c2ccccc2)c2ccccc2)nc(NCc2ccc(C(F)(F)F)cc2)n1 [GW497681] | % | 0 |
| Cn1cncc1-c1ccc2ncnc(Nc3ccc(OCc4ccccc4)cc3)c2c1 [GW320571] | % | 12 |
| CC(C)(C)c1ccc(C(=O)Nc2cn3cc(-c4cccnc4)ccc3n2)cc1 | % | 0 |
| Cl.NC(=O)c1cccc(Nc2nccc(Nc3ccc(Oc4cccc(Cl)c4)c(Cl)c3)n2)c1 [GW659008] | % | 59 |
| COc1cc2nccc(Nc3ccc(NC(=O)c4ccc(C)cc4)c(O)c3)c2cc1OC.Cl [GW440132] | % | 17 |

----------
Tested on: SNARK
Construct: gene NUAK2
Details: concentration: 1 μM, replicates: in singlicate; n = 1
Some molecules, each annotated with its measured %Inh.
PARAMETER: %Inh (%)

| LINE_NOTATION | RECORDED_MEASUREMENT |
| --- | --- |
| Nc1nc(-c2nccs2)c(-c2ccnc3ccccc23)s1 | 8 |
| Cn1ccc2ncnc(Oc3cccc(C(=O)Nc4ccccc4)c3)c21 | 23 |
| O=S(=O)(c1ccc(-c2ccnc3[nH]ccc23)cc1)N1CCCC1 | 16 |
| Clc1cc(Cl)cc(Nc2ccnc(Nc3cc(Cl)cc(Cl)c3)n2)c1 | 10 |
| Fc1cc(Cl)ccc1Nc1ccnc2cc(-c3ccc(CN4CCCCC4)o3)ccc12 | 0 |
| O=C1NC(=O)C(N2CCc3ccccc32)=C1c1ccccc1Cl | 11 |
| Cl.Oc1ccc(-c2nc(-c3ccccc3)[nH]c2-c2ccncc2)cc1 | 0 |

----------
%Inh listing for selected molecules.
Tested on: LYN
Conditions: concentration: 1 μM, replicates: in singlicate; n = 1

| MOLECULE | %Inh (%) |
| --- | --- |
| COC(=O)c1c(-c2ccccc2)c2cc(OC)ccc2c(=O)n1Cc1ccccc1 | 32 |
| CCCc1ccc(S(=O)(=O)NC2CCN(c3ccnc(Nc4ccc(F)cc4)n3)C2)cc1 (stereo not shown) | 0 |
| Cc1cccc(-c2nc(C)cc(Nc3ccncc3)n2)n1 | 0 |
| COc1ccc(C2=C(Nc3cccc(C(=O)O)c3)C(=O)NC2=O)cc1 | 21 |
| Fc1cc(Cl)ccc1Nc1ccnc2cc(-c3ccc(CN4CCCCC4)o3)ccc12 | 0 |
| Cc1nnc(-c2ccc3occ(-c4ccc(S(C)=O)cc4)c3c2)[nH]1 (stereo not shown) | 18 |
| Cc1cc(N2Cc3ccccc3C2)nc(Nc2ccc(S(=O)(=O)N3CCOCC3)cc2)n1.Cl | 0 |
| COc1cccc(NC(=O)NC2CCN(c3ccnc(Nc4ccc(F)cc4)n3)C2)c1 (stereo not shown) | 0 |
| Cn1ccc2ncnc(Oc3ccc(NC(=O)Nc4ccccc4)cc3)c21 | 6 |
| Nc1ncnc2[nH]c(-c3ccccc3)nc12 | 7 |
| COc1ccc(Nc2nccc(NCCNC(=O)Nc3ccccc3F)n2)cc1 | 0 |
| C[C@@H]1CCCCN1c1cc(-c2ccc3c(N)n[nH]c3c2)nc(N)n1 | 0 |
| Clc1cc(Cl)cc(Nc2ccnc(Nc3cc(Cl)cc(Cl)c3)n2)c1 | 23 |
| Fc1cccc(COc2nnc(-c3ccc4c(c3)CCO4)o2)c1 | 6 |
| Cc1ccc(NC(=O)Nc2cccc(Cl)c2)cc1-c1ccc(C(=O)Nc2ccncc2)cc1 | 0 |
| Cn1ccc2ncnc(Oc3cccc(C(=O)Nc4ccccc4)c3)c21 | 9 |

Hey, just so you know, these numbers are from paper PMC5540273.
